target: NA transporter (Rattus norvegicus); construct: synaptosomes from rat brain regions were freshly isolated; from tissue; host or cells: P2 synaptosome fraction from hypothalamus of male rat brain; assay: Noradrenalin uptake inhibition (NA-uptake) in synaptosomes; type: biochemical; conditions: rat hypothalamus synaptosomes
Sequence (Q9WTR4 1-597): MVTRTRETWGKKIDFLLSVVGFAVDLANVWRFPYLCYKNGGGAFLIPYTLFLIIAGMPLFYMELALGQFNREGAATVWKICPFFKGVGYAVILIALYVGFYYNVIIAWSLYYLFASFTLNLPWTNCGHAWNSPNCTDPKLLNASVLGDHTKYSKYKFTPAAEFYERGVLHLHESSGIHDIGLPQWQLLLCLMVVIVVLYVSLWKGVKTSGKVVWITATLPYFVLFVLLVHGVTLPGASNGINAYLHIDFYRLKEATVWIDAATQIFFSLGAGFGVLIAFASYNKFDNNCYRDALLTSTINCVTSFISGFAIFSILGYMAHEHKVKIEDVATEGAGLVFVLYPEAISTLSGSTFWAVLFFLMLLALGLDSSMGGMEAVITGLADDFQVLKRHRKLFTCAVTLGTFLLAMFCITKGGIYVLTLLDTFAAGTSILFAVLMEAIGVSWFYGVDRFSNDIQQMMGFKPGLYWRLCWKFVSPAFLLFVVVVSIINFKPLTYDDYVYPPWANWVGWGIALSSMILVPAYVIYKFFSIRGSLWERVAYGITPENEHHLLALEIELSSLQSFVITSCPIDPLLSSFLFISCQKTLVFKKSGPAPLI
Each item that follows carries a reported inhibition at 10 µM.
readout.name: inhibition at 10 µM

>>> endpoint_value("Cc1cc(C(=O)N2CCC3(CC2)CC(C(=O)NCc2ccncc2)=NO3)ccc1Br [Example 130]")
"61%"
>>> endpoint_value("O=C(C1=NOC2(CCN(S(=O)(=O)c3ccc(OC(F)(F)F)cc3)CC2)C1)N(CCc1ccccc1)Cc1ccccc1 [Example 97]")
"83%"
>>> endpoint_value("CC(C)CNC(=O)C1=NOC2(CCN(C(=O)c3ccc(F)cc3)CC2)C1 [Example 137]")
"49%"
>>> endpoint_value("O=C(NCc1ccccc1)C1=NOC2(CCN(S(=O)(=O)c3cccc(Cl)c3)CC2)C1 [Example 210]")
"42%"
